system: EKVX NSCLC; assay: NCI-60 one-dose screen, 48 h (100 = growth as untreated, 0 = no growth, -100 = all killed); settings: 10 µM unless noted
Compounds without any hit were thinned out: in the full panel of roughly 83,000, 20% have a hit.
READOUT LABEL: growth (%)
Give bare numbers, in %.

# batch: return growth for each of the 5 compounds below
1. Oc1ccccc1/C=N/c1ccccn1
2. COC1OCC(OS(=O)(=O)c2ccc(C)cc2)C(OC(=O)c2ccccc2)C1OC(=O)c1ccccc1 (stereo not given)
3. CCNc1ncnc2n[nH]nc12
4. S=C=NP1(N=C=S)=NP(N=C=S)(N=C=S)=NP(N=C=S)(N=C=S)=NP(N=C=S)(N=C=S)=N1 (stereo not given)
5. COc1ccc(-c2nn(-c3ccc(NC(=O)Nc4ccc(Cl)c(C(F)(F)F)c4)cc3)cc2-c2ccncc2)cc1Cl

Result:
[112, 53.4, 94.7, 95, 11.1]

====

system: COLO 205 colon; test: NCI-60 one-dose screen, 48 h; conditions: 10 µM unless noted
This is part of a sample that, as a whole, favours compounds with a hit. Of some 83,000 tested, about 20% had one in any assay. Calls of active or inactive are those of the source. The calls were made as follows: active = growth percent below 10; inactive = the rest.
Choose the fitting class; nothing outside active, inactive is accepted.

Look over these answered cases.
CCn1cc(/C=C2\Oc3cc(OCC#N)ccc3C2=O)c2cc(OC)ccc21 = active
COc1cc2c(cc1OCCCCC(=O)Nc1ccc(-c3nc4ccccc4s3)cc1)N=C[C@@H]1CCCN1C2=O = active
C#C[C@@]1(O)[C@@H](CO)O[C@@H](n2cc(C(F)(F)F)c3c(N)ncnc32)[C@@H]1O = active

Task: Fill in: this test's call for "O=C(Nc1ccc(-n2ccc3c(NC(=O)c4ccccc4)ncnc32)cc1)Nc1ccc(Cl)c(Cl)c1" is ___
Result: inactive

Task: # outcome recorded in this test, key = "COc1ccc(/C=C/C(=O)c2ccc(NC(=O)CSc3nnc(-c4cc(OC)c(OC)c(OC)c4)o3)cc2)cc1"
Result: active

Task: Tell me the recorded outcome of this test for "CCOc1ccc(Cc2nccc3cc(OCC)c(OCC)cc23)cc1OCC" .
Result: inactive

Task: Dear all, I need the recorded test outcome for "CC1(C)N=C(N)N=C(N)N1c1ccc(F)c(C(F)(F)F)c1" , thank you.
Result: inactive

Task: Please indicate how the test categorized "COc1ccc2c(c1)O/C(=C/c1ccc(OCC(=O)Nc3ccc(S(N)(=O)=O)cc3)cc1)C2=O" .
Result: inactive

Task: Dear all, I need the recorded test outcome for "Cc1cccc(Cc2cnc(NC(=O)CCc3ccc(C)o3)s2)c1" , thank you.
Result: active

====

For each of the compounds below, state its growth.
test system: HCC-2998 colon; assay: NCI-60 one-dose screen, 48 h (100 = growth as untreated, 0 = no growth, -100 = all killed); conditions: 10 µM unless noted
Compounds without any hit were thinned out: in the full panel of roughly 83,000, 20% have a hit. Calls of active or inactive are those of the source. The calls were made as follows: active = growth percent below 10; inactive = the rest.

Past entries and their recorded results:
Cc1cccc(CC(=O)c2ccccc2)n1 = 94.6% (inactive)
O=[N+]([O-])c1cccc2cc(S(=O)(=O)O)ccc12 = 100% (inactive)
Cc1[nH]n(C(=O)c2ccncc2)c(=O)c1N=Nc1ccc(S(=O)(=O)Nc2ccncn2)cc1 = 113% (inactive)
C=CCOc1ccc(/C(Cl)=N/N=C(\Cl)c2cc(OC)c(OC)c(OC)c2)cc1 = 75.6% (inactive)
Nc1ncnc2c1ccn2-c1cccc(NC(=O)c2cccc(C(F)(F)F)c2)c1 = 98.6% (inactive)

Could you now look at the following compound, please?
Task: Entry CCN(CC)c1ccc(C2CC(c3cc(OC)c(OC)c(OC)c3)=NN2)cc1 (stereo unspecified) needs its growth filled in; supply it.
Result: 21.2% (inactive)

====

tested on: U251 CNS; assay: NCI-60 one-dose screen, 48 h; details: 10 µM unless noted
Compounds without any hit were thinned out: in the full panel of roughly 83,000, 20% have a hit. Calls of active or inactive are those of the source. The calls were made as follows: active = growth percent below 10; inactive = the rest.
Bench note: report the call from 1 (yes) for active, 0 (no) for inactive

Some solved cases for reference:
CN1C(=O)C2(NN=C(c3cccc4ccccc34)S2)c2ccccc21 (stereo not given) = 1 (yes)
Cc1ccn2cc(Cc3cc(=O)oc4c3ccc3ccccc34)c(=O)nc2c1 = 0 (no)
COc1ccc(/C=C/C(=O)c2ccc(Oc3ncnc4ccccc34)cc2)cc1OC = 0 (no)
CCn1cc(C(=O)O)c(=O)c2cc(F)c(N3CCN(CC(=O)Nc4ccc(C(C)=O)cc4)CC3)cc21 = 0 (no)
CN(C)CCS(=O)(=O)Nc1cc(-c2ccc3ncnc(Nc4ccc(F)c(Cl)c4)c3c2)cnc1Cl = 1 (yes)

Task: Recorded test call requested for "COc1cc(C(=O)NNC(=O)c2ccccc2C(=O)O)cc(OC)c1OC"
Result: 0 (no)

Task: Please let me know the test result on file for OC(COc1ccccc1Cl)CN1CCN(c2ccc(Cl)cc2)CC1 (stereo not given) .
Result: 0 (no)

Task: Assay outcome for "O=C(/C=C/c1ccco1)c1cccc(Nc2nc(Nc3ccccc3)nc(Nc3ccccc3)n2)c1" : what was it?
Result: 0 (no)

Task: Recorded test call requested for CC(CN(C)C)CN1c2ccccc2CCc2ccccc21 (stereo not given)
Result: 0 (no)

Task: Assay result, entry "COC(=O)c1oc2c(C(=O)/C=C/c3ccc(OC)cc3)c(OCCN3CCOCC3)ccc2c1C" — outcome?
Result: 1 (yes)

====

Test system: MOLT-4 leukemia
Experiment: NCI-60 one-dose screen, 48 h
Settings: 10 µM unless noted
Description: Growth inhibition of the MOLT-4 human tumor cell line is measured as a screen for anti-cancer activity. Cells are grown in 96 well plates and exposed to the test compound for 48 hours. Compounds are tested at a single concentration, which is 10^-5 M for most compounds. The reported endpoint is percent growth (GI% or GIPRCNT), where numbers from 0 - 100% represent growth inhibition, and numbers from -100% - 0 represent cell death. For example, a value of 40 represents 60% growth inhibition. […]
Compounds without any hit were thinned out: in the full panel of roughly 83,000, 20% have a hit. Calls of active or inactive are those of the source. Rule for the calls: active = growth percent below 10; inactive = the rest.
Your answer must be one of the following: true (1) (active), false (0) (inactive)

Example entries and their recorded answers appear below.
Nc1ccc(S(=O)(=O)Nc2cc(I)cc(I)c2)cc1 = true (1)
COc1cccc(-c2nc3sccn3c2-c2ccnc(NCCNC(=O)Nc3cccc(C(F)(F)F)c3)n2)c1 = false (0)
CC(C)Cn1cnc2c3ccccc3nc(NCn3nc(-c4cc(Cl)cc(Cl)c4Cl)oc3=S)c21 = false (0)
COc1ccc(/C=C/C(=O)/C=C(/C=C/c2ccc(OC)c(OC)c2OC)OB(F)F)c(OC)c1OC = true (1)
Nc1ncnc2c1ccn2-c1cccc(NC(=O)c2cccc(C(F)(F)F)c2)c1 = false (0)
CC1(C)CC(=O)C2=C(C1)OC1=C(C(=O)CC(C)(C)C1)C2c1ccc(OCc2cn(-c3ccc(F)cc3F)nn2)cc1 = false (0)
CCOc1ccccc1C(=O)N1CCN(c2cc(Cl)cc(Cl)c2)CC1 = true (1)
COc1ccc2c(c1)OC(N(C(C)=O)C(C)=O)=C(C#N)C2c1ccc(F)cc1 (stereo not drawn) = false (0)

Task: Query: recorded result category for C[C@@H]1CC2C3C[C@H](F)C4=CC(=O)C=C[C@]4(C)[C@@]3(F)[C@@H](O)C[C@]2(C)[C@@]1(O)C(=O)CO (stereo partly drawn) in this test
Result: false (0)

Task: Please state the recorded outcome for this compound: "COc1cc(/C=C/C(=O)c2c(C)[n+]([O-])c3ccccc3[n+]2[O-])ccc1O"
Result: false (0)

====

tested on: RPMI-8226 leukemia; assay: NCI-60 one-dose screen, 48 h (100 = growth as untreated, 0 = no growth, -100 = all killed); conditions: 10 µM unless noted
Compounds without any hit were thinned out: in the full panel of roughly 83,000, 20% have a hit.
growth strictly less than 60% = class 1. Otherwise class 0.

These recorded examples may help you get a feel for the data.
O=C(C[n+]1ccccc1Cl)c1ccc2c(c1)CCCC2 = class 0
COc1ccc(-c2nn(-c3ccc(NC(=O)c4cc(Cl)cc(Cl)c4)cc3)cc2-c2ccncc2)cc1Cl = class 1
CC(C(=O)O)N1C(N)=NNC1c1ccccc1O (configuration not stated) = class 0

Task: Strictly below 60%: is that where growth of "FC(F)(F)c1cn(CC2CNC2)c2ncnc(Cl)c12" sits?
Result: class 0

Task: growth under 60%? Item: "Fc1cccc(F)c1C#Cc1ccc2cccnc2c1"
Result: class 0

Task: Lab note: confirm whether the reported growth for this molecule is below 60%, equality not counting. molecule: "O=c1cc(Cl)[nH]c(=O)[nH]1"
Result: class 0

Task: hey, is growth for "Cn1c2ccccc2c2ssc(=S)c21" lower than 60% or not?
Result: class 0

Task: Confirm or reject: growth of "CNCCCOc1c(Br)cc(CCNC(=O)/C(Cc2cc(Br)c(OC)c(Br)c2)=N/O)cc1Br" lies strictly below 60%
Result: class 1

Task: For this molecule, is growth lower than 60%? Cc1cn([C@]2(CF)O[C@H](CO)C2C)c(=O)[nH]c1=O (some centres not stated)
Result: class 0

Task: Answer whether the molecule "CC(C)(CCN=C(N)Nc1ccccn1)c1ccc(C(F)(F)F)cc1" has growth strictly less than 60%
Result: class 1

Task: Does "CCOC(=O)c1cnc2c(OC)ccc(OC)c2c1Cl" have growth strictly under 60%?
Result: class 0

Task: Here's an entry: "CCN(CC)C(=O)C1CCN(C(=O)c2ccccc2)CC1" . Is its growth below 60%?
Result: class 0

Task: hey, is growth for "COC1=C(OC)C(=O)C=CC1=O" lower than 60% or not?
Result: class 0

Task: Quick check: does "COc1cc2c(cc1OC)-c1c(oc3c4c(ccc3c1=O)OC(C)(C)C=C4)CO2" have growth under 60%?
Result: class 1

Task: Please indicate whether the reported growth of "COc1ccc2c(-c3ccc(F)cc3)c(C#N)c(=NC(C)=O)oc2c1" is strictly below 60%.
Result: class 1

Task: Is the reported growth for OC[C@@H](O)C(O[C@@H]1O[C@H](CO)[C@H](O)[C@H](O)[C@H]1O)[C@H](O)[C@@H](O)CO (some centres not stated) strictly below 60%?
Result: class 0

Task: Consider the molecule "CC(=O)Nc1ccc(OC(=O)c2ccccc2O)cc1" . Is its growth strictly less than 60%?
Result: class 0

Task: Is it true that growth reported for "Cc1cc(N2CCOCC2)nc(N(CCNc2ccnc3cc(Cl)ccc23)Cc2ccco2)n1" is less than 60%?
Result: class 1

Task: Lab note: growth threshold 60%. Does this molecule come in strictly under it? "CC1(C)N=C(N)N=C(N)N1c1ccc(F)c(C(F)(F)F)c1"
Result: class 1

Task: Please determine if "Nc1ncnc2c1c(-c1ccc(Oc3ccccc3)cc1)nn2C[C@H]1SSC[C@H]1O" is below 60% in terms of growth.
Result: class 1

Task: Strictly below 60%: is that where growth of "COc1ccc2c(c1)/C(=C/c1c(-c3cc(OC)c(OC)c(OC)c3Br)nc3sccn13)C(=O)N2" sits?
Result: class 0
